- assay.remarks: in vivo
- measurement.conditions: rat, iv

[
  {
    "compound": "CC(C)C(C#N)(CCCNCCc1ccccc1)c1ccccc1.Cl (centres unmarked) [Noremopamil]",
    "EKG (AV-Block) Ratte i.v. ED": "4,6"
  },
  {
    "compound": "COc1ccc(CCN(C)CCCC(C#N)(c2ccc(OC)c(OC)c2)C(C)C)cc1OC (racemic) [S,R-Verapamil, Verapamil, reference compound]",
    "EKG (AV-Block) Ratte i.v. ED": "= 1"
  },
  {
    "compound": "COc1ccc(CCN(C)CCC[C@](C#N)(c2ccc(OC)c(OC)c2)C(C)C)cc1OC [R-Verapamil, reference compound]",
    "EKG (AV-Block) Ratte i.v. ED": "4,6"
  },
  {
    "compound": "CC(C)[C@@](C#N)(CCCN(C)CCc1ccccc1)c1ccccc1 [S-Emopamil]",
    "EKG (AV-Block) Ratte i.v. ED": "2,15"
  },
  {
    "compound": "COc1ccc(CCN(C)CCCC(C#N)(c2cc(OC)c(OC)c(OC)c2)C(C)C)cc1OC (single isomer, unassigned; (+)) [(+)-Gallopamil]",
    "EKG (AV-Block) Ratte i.v. ED": "4,6"
  }
]
